The values you see were collected from ChEMBL document CHEMBL1961873.

# systemName: Serine/threonine-protein kinase Chk1 (Homo sapiens);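 note: mean inhibition of CHEK1, part of the GSK PKIS profiling set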
# protocolConditions: at 1 µM
Listed compounds paired with reported inhibition

Example cases with answers are listed next.
Cc1cc(O)cc(C)c1/C=C/c1cncc(-c2nn[nH]n2)c1: 2.19%
CC1=C(C(=O)Nc2ccc3[nH]ncc3c2)C(c2ccc3ccccc3c2)CC(=O)N1 (stereo unspecified): 3.91%
NC(=O)c1ccc(-c2nc(-c3ccccn3)c(-c3ccc4c(c3)OCO4)[nH]2)cc1: 2.65%
Nc1nc(-c2ccc3c(c2)C(=Cc2cc(Br)c(O)c(Br)c2)C(=O)N3)cs1: 1.34%
O=C1NC(=O)C(N2CCc3ccccc32)=C1c1ccc(Cl)cc1: 12.7%

Q: # get_value(readout='inhibition', item= NCc1ccc(-c2nc(-c3ccc(Cl)c(O)c3)c(-c3ccncc3)[nH]2)cc1 )
A: 2.53%
